- SYSTEM: Trypsin (Bos taurus)
- Sequence (P00760 24-246): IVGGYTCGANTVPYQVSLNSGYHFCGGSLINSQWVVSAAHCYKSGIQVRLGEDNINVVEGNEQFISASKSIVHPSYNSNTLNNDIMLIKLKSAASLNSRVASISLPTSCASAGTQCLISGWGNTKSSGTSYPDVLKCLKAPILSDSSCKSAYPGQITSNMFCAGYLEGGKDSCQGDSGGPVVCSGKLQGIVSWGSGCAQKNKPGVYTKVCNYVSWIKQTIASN
- ASSAY TEXT: biochemical
- Set-up: species or system Bovine
- MEASUREMENT SETUP: read-out: Kass Trypsin (converted)
Where a name gives a salt, the structure may show the parent alone.
For each record, check the reported Kd: if it is below 0.07 µM write T, else write F.

[
  {
    "COMPOUND": "NCc1ccc(CNC(=O)[C@@H]2CCCN2C(=O)[C@H](N)Cc2ccccc2)cc1 [Example 10, D-Phe-Pro-p-NHCH2C6H4CH2NH2·HCl]",
    "ASSIGNED CATEGORY": "F"
  },
  {
    "COMPOUND": "N=C(N)Nc1cccc(CCNC(=O)[C@@H]2CCCN2C(=O)[C@@H]2NCC[C@@H]3CCCC[C@@H]32)c1",
    "ASSIGNED CATEGORY": "F"
  },
  {
    "COMPOUND": "O=C(O)CN[C@H](CC1CCCCC1)C(=O)N1CCC[C@H]1C(=O)NCCCC1CCNCC1",
    "ASSIGNED CATEGORY": "F"
  },
  {
    "COMPOUND": "N=C(N)c1ccc(CNC(=O)[C@@H]2CCCN2C(=O)[C@H]2CCCCN2)cc1 [Example 17, D-hPro-Pro-p-NHCH2C6H4C(NH)NH2·HCl]",
    "ASSIGNED CATEGORY": "F"
  },
  {
    "COMPOUND": "CCS(=O)(=O)N[C@H](Cc1ccccc1)C(=O)N1CCC[C@H]1C(=O)NCCCc1cccc(C(=N)N)c1",
    "ASSIGNED CATEGORY": "F"
  },
  {
    "COMPOUND": "CCS(=O)(=O)N[C@H](Cc1ccccc1)C(=O)N1CCC[C@H]1C(=O)NCCc1cccc(NC(=N)N)c1",
    "ASSIGNED CATEGORY": "F"
  },
  {
    "COMPOUND": "N=C(N)c1ccc(CNC(=O)[C@@H]2CCCN2C(=O)[C@@H](CC2CCCCC2)NCC(=O)O)s1",
    "ASSIGNED CATEGORY": "T"
  },
  {
    "COMPOUND": "N=C(N)c1ccc(CNC(=O)[C@@H]2C[C@@H]3CCCC[C@@H]3N2C(=O)[C@H]2C[C@H]3CCCC[C@H]3CN2)cc1 [Example 43, D-3-Piq-cis-Ohi-p-NHCH2C6H4C(NH)NH2·2HCl]",
    "ASSIGNED CATEGORY": "T"
  },
  {
    "COMPOUND": "CCS(=O)(=O)N[C@H](Cc1ccccc1)C(=O)N1[C@H](C(=O)NCc2ccc(C(=N)N)cc2)C[C@@H]2CCCC[C@@H]21",
    "ASSIGNED CATEGORY": "T"
  },
  {
    "COMPOUND": "Cn1c(C(=O)N[C@H](Cc2ccccc2)C(=O)N2CCC[C@H]2C(=O)NCCCCNC(=N)N)cc2ccccc21 [Example 4, monohydrochloride]",
    "ASSIGNED CATEGORY": "F"
  },
  {
    "COMPOUND": "N=C(N)c1ccc(CNC(=O)[C@@H]2C[C@@H]3CCCC[C@@H]3N2C(=O)[C@@H](CC2CCCCC2)NCC(=O)O)cc1",
    "ASSIGNED CATEGORY": "T"
  },
  {
    "COMPOUND": "N=C(N)c1ccc(CNC(=O)[C@@H]2CCCN2C(=O)[C@@H](CC2CCCCC2)NCC(=O)O)cc1",
    "ASSIGNED CATEGORY": "T"
  }
]

----------
- SYSTEM: Plasmin (Homo sapiens, UniProt P00747)
- Construct: Human plasmin is purchased; purchased Boehringer Mannheim, Indianapolis, Indiana
- Sequence (P00747 581-810 limits assumed): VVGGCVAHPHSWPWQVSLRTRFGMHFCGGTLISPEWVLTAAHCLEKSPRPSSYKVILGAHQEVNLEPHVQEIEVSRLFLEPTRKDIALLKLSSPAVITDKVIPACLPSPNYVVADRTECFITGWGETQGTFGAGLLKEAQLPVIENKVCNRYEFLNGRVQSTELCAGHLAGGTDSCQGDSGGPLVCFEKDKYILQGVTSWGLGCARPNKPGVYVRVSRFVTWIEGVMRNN
- Sequence (P00747 97-580 partner limits assumed): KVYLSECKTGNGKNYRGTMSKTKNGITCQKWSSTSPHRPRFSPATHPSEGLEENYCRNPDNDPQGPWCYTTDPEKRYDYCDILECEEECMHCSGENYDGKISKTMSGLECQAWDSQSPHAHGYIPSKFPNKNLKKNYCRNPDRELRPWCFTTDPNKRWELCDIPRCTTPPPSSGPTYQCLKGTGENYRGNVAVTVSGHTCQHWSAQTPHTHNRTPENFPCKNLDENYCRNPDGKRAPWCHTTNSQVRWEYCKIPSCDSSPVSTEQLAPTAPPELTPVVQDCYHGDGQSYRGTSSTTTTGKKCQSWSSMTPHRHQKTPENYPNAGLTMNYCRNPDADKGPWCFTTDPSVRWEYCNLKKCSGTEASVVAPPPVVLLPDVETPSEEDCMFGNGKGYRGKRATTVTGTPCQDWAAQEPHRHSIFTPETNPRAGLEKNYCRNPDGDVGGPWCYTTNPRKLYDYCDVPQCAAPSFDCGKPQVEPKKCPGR
- ASSAY TEXT: biochemical
- MEASUREMENT SETUP: read-out: Kass Plasmin (converted)
Counter-ions that a name gives are not always drawn.

[
  {
    "COMPOUND": "N=C(N)c1ccc(CNC(=O)[C@@H]2C[C@@H]3CCCC[C@@H]3N2C(=O)[C@@H]2NCC[C@@H]3CCCC[C@@H]32)cc1 [Example 42, D-1-Piq-cis-Ohi-p-NHCH2C6H4C(NH)NH2·2HCl]",
    "Kd": "8.33 µM"
  },
  {
    "COMPOUND": "CCS(=O)(=O)N[C@@H](C(=O)N1[C@H](C(=O)NCc2ccc(C(=N)N)cc2)C[C@@H]2CCCC[C@@H]21)c1ccccc1 (relative stereo) [Example 44, HCl]",
    "Kd": "0.556 µM"
  },
  {
    "COMPOUND": "N=C(N)c1ccc(CCNC(=O)[C@@H]2CCCN2C(=O)[C@@H]2NCC[C@@H]3CCCC[C@@H]32)cc1 [Example 28, 1-Piq-Pro-p-NHCH2CH2-C6H4C(=NH)NH2·2HCl]",
    "Kd": "> 1000 µM"
  },
  {
    "COMPOUND": "N=C(N)c1ccc(CNC(=O)[C@@H]2CCCN2C(=O)[C@@H](CC2CCCCC2)NCC(=O)O)cc1",
    "Kd": "2.33 µM"
  },
  {
    "COMPOUND": "N=C(N)Nc1ccc(CNC(=O)[C@@H]2CCCN2C(=O)[C@@H]2NCC[C@@H]3CCCC[C@@H]32)cc1 [Example 38, D-1-Piq-Pro-p-NHCH2C6H4NHC(NH)NH2·2HCl]",
    "Kd": "> 1000 µM"
  },
  {
    "COMPOUND": "N=C(N)Nc1cccc(CCNC(=O)[C@@H]2CCCN2C(=O)[C@@H]2NCC[C@@H]3CCCC[C@@H]32)c1",
    "Kd": "> 1000 µM"
  }
]

----------
- ASSAY TEXT: in vivo
- Set-up: species or system rats
- MEASUREMENT SETUP: screening not completed, activity after p.o. dose given in the legend
PARAMETER MEASURED: % oral/i.v. activity (Rat)

[
  {
    "COMPOUND": "N=C(N)c1ccc(CNC(=O)[C@@H]2C[C@@H]3CCCC[C@@H]3N2C(=O)[C@@H]2NCC[C@@H]3CCCC[C@@H]32)cc1 [Example 42, D-1-Piq-cis-Ohi-p-NHCH2C6H4C(NH)NH2·2HCl]",
    "RESULT": "NC^2"
  },
  {
    "COMPOUND": "CCS(=O)(=O)N[C@H](Cc1ccccc1)C(=O)N1[C@H](C(=O)NCc2ccc(C(=N)N)cc2)C[C@@H]2CCCC[C@@H]21",
    "RESULT": "NC^2"
  },
  {
    "COMPOUND": "N=C(N)c1cc(F)c(CNC(=O)[C@@H]2CCCN2C(=O)[C@@H](CC2CCCCC2)NCC(=O)O)c(F)c1",
    "RESULT": "NC^1"
  },
  {
    "COMPOUND": "N=C(N)c1ccc(CNC(=O)[C@@H]2CCCN2C(=O)[C@@H](CC2CCCCC2)NCC(=O)O)c(F)c1",
    "RESULT": "NC^1"
  },
  {
    "COMPOUND": "CCS(=O)(=O)N[C@H](Cc1ccccc1)C(=O)N1CCC[C@H]1C(=O)NCCc1ccc(C(=N)N)cc1",
    "RESULT": "NC^1"
  },
  {
    "COMPOUND": "Nc1ccc(CNC(=O)[C@@H]2CCCN2C(=O)[C@@H](CC2CCCCC2)NCC(=O)O)c(F)c1",
    "RESULT": "NC^3"
  },
  {
    "COMPOUND": "N=C(N)c1ccc(CNC(=O)[C@@H]2C[C@@H]3CCCC[C@@H]3N2C(=O)[C@@H](Cc2ccccc2)NCC(=O)O)cc1",
    "RESULT": "NC^2"
  },
  {
    "COMPOUND": "N=C(N)c1ccc(CNC(=O)[C@@H]2C[C@@H]3CCCC[C@@H]3N2C(=O)[C@@H](CC2CCCCC2)NCC(=O)O)cc1",
    "RESULT": "NC^2"
  }
]

----------
- SYSTEM: Trypsin (Bos taurus, UniProt P00760)
- ASSAY TEXT: biochemical
- Design: species or system Bovine
- MEASUREMENT SETUP: read-out: Kass Trypsin (converted)
Where a name gives a salt, the structure may show the parent alone.
PARAMETER MEASURED: log10 Kd (log10 of the value in µM)

[
  {
    "COMPOUND": "N=C(N)N1CCC(CCNC(=O)[C@@H]2CCCN2C(=O)[C@@H](CC2CCCCC2)NCC(=O)O)CC1",
    "RECORDED NUMBER": 0.62
  },
  {
    "COMPOUND": "N=C(N)c1ccc(CNC(=O)[C@@H]2CCCN2C(=O)[C@@H](CC2CCCCC2)NCC(=O)O)nc1",
    "RECORDED NUMBER": -0.66
  },
  {
    "COMPOUND": "N=C(N)NCCCCCNC(=O)[C@@H]1CCCN1C(=O)[C@H](N)Cc1ccccc1 [Example 6, D-Phe-Pro-NH(CH2)5NHC(NH)NH2·HCl]",
    "RECORDED NUMBER": 2.80
  },
  {
    "COMPOUND": "CCS(=O)(=O)N[C@H](Cc1ccccc1)C(=O)N1CCC[C@H]1C(=O)NCCCc1ccc(C(=N)N)cc1",
    "RECORDED NUMBER": 1.52
  },
  {
    "COMPOUND": "NCC1CCC(CNC(=O)[C@@H]2CCCN2C(=O)[C@@H](CC2CCCCC2)NCC(=O)O)CC1 (stereo partly drawn) [Example 79, HO2CCH2-D-Cha-Pro-4-NHCH2C6H10CH2NH2·HCl]",
    "RECORDED NUMBER": 0.62
  },
  {
    "COMPOUND": "Nc1ccc(CCNC(=O)[C@@H]2CCCN2C(=O)[C@H](N)Cc2ccccc2)cc1 [Example 14, D-Phe-Pro-p-NHCH2CH2C6H4NH2·HCl]",
    "RECORDED NUMBER": 4.25
  },
  {
    "COMPOUND": "O=C(O)CN[C@H](CC1CCCCC1)C(=O)N1CCC[C@H]1C(=O)NCC1=CCNCC1",
    "RECORDED NUMBER": 0.40
  },
  {
    "COMPOUND": "N=C(N)c1ccc(CNC(=O)[C@@H]2C[C@@H]3CCCC[C@@H]3N2C(=O)[C@@H]2NCC[C@@H]3CCCC[C@@H]32)cc1 [Example 42, D-1-Piq-cis-Ohi-p-NHCH2C6H4C(NH)NH2·2HCl]",
    "RECORDED NUMBER": -1.63
  },
  {
    "COMPOUND": "N=C(N)c1ccc(CNC(=O)CN(CCc2ccccc2)C(=O)[C@H]2CCCCN2)cc1",
    "RECORDED NUMBER": 0.02
  },
  {
    "COMPOUND": "N=C(N)c1ccc(CNC(=O)[C@@H]2CCCN2C(=O)[C@@H](CC2CCCCC2)NCC(=O)O)nn1",
    "RECORDED NUMBER": -0.57
  },
  {
    "COMPOUND": "CCS(=O)(=O)N[C@H](Cc1ccccc1)C(=O)N1CCC[C@H]1C(=O)NCc1cccc(C(=N)N)c1",
    "RECORDED NUMBER": 1.52
  },
  {
    "COMPOUND": "N=C(N)NC/C=C/CNC(=O)[C@@H]1CCCN1C(=O)[C@H](N)Cc1ccccc1 (relative stereo)",
    "RECORDED NUMBER": 1.66
  },
  {
    "COMPOUND": "CCS(=O)(=O)N[C@H](Cc1ccccc1)C(=O)N1CCC[C@H]1C(=O)NCCc1cccc(C(=N)N)c1",
    "RECORDED NUMBER": 1.70
  },
  {
    "COMPOUND": "CCS(=O)(=O)N[C@H](Cc1ccccc1)C(=O)N1CCC[C@H]1C(=O)NCc1cccc(NC(=N)N)c1",
    "RECORDED NUMBER": 2.00
  },
  {
    "COMPOUND": "CCS(=O)(=O)N[C@H](Cc1ccccc1)C(=O)N1CCC[C@H]1C(=O)NCc1ccc(C(=N)N)cc1",
    "RECORDED NUMBER": -1.32
  }
]

Cited source for all entries: patent EP0672658B1
